Tested on: Huh 7 hepatoma cells containing the subgenomic HCV replicon
experimental-protocol: Cytotoxicity (MTS assay or GAPDH RNA readout)
Assay type: cell-based
test-settings: replicon-containing Huh 7 cells, 3-day incubation, MTS or GAPDH RNA readout; read-out: 1b CC50
metric-name: CC50

Example compounds with recorded CC50:
compound="CC(O)C1O[C@@H](n2cc(F)c3c(N)ncnc32)[C@](C)(F)[C@@H]1O (some centres unmarked) [Compound 24]" readout_value="> 100 µM"
compound="C[C@@H](O)C1O[C@@H](n2ccc3c(N)ncnc32)[C@](C)(O)[C@@H]1O (some centres unmarked) [Compound 27]" readout_value="> 100 µM"
compound="CCCCOC(=O)[C@H](C)NP(=O)(Oc1cccc2ccccc12)OC(C)[C@H]1O[C@@H](n2ccc3c(N)ncnc32)[C@](C)(O)[C@@H]1O (some centres unmarked) [Compound 45]" readout_value="> 100 µM"
compound="CCCCOC(=O)[C@H](C)NP(=O)(Oc1cccc2ccccc12)O[C@H](C)[C@H]1O[C@@H](n2ccc3c(N)ncnc32)[C@](C)(O)[C@@H]1O (some centres unmarked) [Compound 2]" readout_value="44 µM"

Let's switch to this compound now.
Query block: Looking for the measured CC50 of C[C@H](O)C1O[C@@H](n2cc(F)c3c(N)ncnc32)[C@](C)(F)[C@@H]1O (some centres unmarked) [Compound 25] , can you help?
Result block: > 100 µM

----------
For each of the compounds below, state its CC50 at 3 day.
experimental-protocol: Cytotoxicity (MTS assay or GAPDH RNA readout)
Format: cell-based
test-settings: human, replicon-containing Huh 7 cells, 3-day incubation, MTS or GAPDH RNA readout; read-out: 1b CC50

compound="CC(O)[C@H]1O[C@@H](n2cc(-c3cc[nH]n3)c3c(N)ncnc32)[C@](C)(F)[C@@H]1O (stereo partly drawn)" metric_name="CC50 at 3 day" readout_value="> 100 µM"
compound=CC[C@@H](O)[C@H]1O[C@@H](n2ccc3c(N)ncnc32)[C@](C)(O)[C@@H]1O metric_name="CC50 at 3 day" readout_value="> 100 µM"
compound="COC(=O)[C@H](C)NP(=O)(Oc1ccccc1)O[C@H](C)[C@H]1O[C@@H](n2cc(F)c3c(N)ncnc32)[C@](C)(O)[C@@H]1O (stereo partly drawn)" metric_name="CC50 at 3 day" readout_value="> 100 µM"
compound="CC(C)OC(=O)[C@H](C)NP(=O)(Oc1ccccc1)OC(C)[C@H]1O[C@@H](n2ccc3c(N)ncnc32)[C@](C)(O)[C@@H]1O (stereo partly drawn)" metric_name="CC50 at 3 day" readout_value="98 µM"
compound="CCOC(=O)[C@H](C)NP(=O)(Oc1ccccc1Cl)OC(C)[C@H]1O[C@@H](n2ccc3c(N)ncnc32)[C@](C)(F)[C@@H]1O (stereo partly drawn)" metric_name="CC50 at 3 day" readout_value="> 100 µM"

Query block: So what's the measured CC50 at 3 day for this one? CCCCOC(=O)[C@H](C)NP(=O)(Oc1cccc2ccccc12)O[C@H](C)[C@H]1O[C@@H](n2cc(F)c3c(N)ncnc32)[C@](C)(O)[C@@H]1O (stereo partly drawn)
Result block: 84 µM

----------
assayed-system: HCV NS5B RNA-dependent RNA polymerase (1b-BKΔ55) (Hepatitis C virus genotype 1b (isolate BK) (HCV))
Sequence (P26663 2420-2955): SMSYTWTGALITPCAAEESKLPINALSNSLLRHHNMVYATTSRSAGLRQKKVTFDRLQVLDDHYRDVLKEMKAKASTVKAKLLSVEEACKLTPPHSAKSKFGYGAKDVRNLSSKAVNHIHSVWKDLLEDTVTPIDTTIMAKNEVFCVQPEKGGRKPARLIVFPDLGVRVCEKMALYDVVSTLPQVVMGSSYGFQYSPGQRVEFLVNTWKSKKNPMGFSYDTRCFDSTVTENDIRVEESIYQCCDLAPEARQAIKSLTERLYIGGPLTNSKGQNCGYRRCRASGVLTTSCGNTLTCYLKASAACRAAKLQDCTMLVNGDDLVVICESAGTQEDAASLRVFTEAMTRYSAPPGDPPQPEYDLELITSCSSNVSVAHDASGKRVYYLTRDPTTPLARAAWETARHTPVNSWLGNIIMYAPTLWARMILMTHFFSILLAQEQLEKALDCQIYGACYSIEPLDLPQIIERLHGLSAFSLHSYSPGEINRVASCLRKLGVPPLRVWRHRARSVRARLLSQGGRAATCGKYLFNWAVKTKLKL
experimental-protocol: HCV NS5B polymerase inhibition assay (radiolabeled nucleotide incorporation)
test-settings: 5 nM NS5B (1b-BKΔ55), [33P]-CTP incorporation, room temperature 1 hour
metric-name: pIC50
Answers are plain numbers, as −log10 of the molar value.

smiles_entry=C[C@H](OP(=O)(O)OP(=O)(O)OP(=O)(O)O)[C@H]1O[C@@H](n2ccc3c(N)ncnc32)[C@](C)(O)[C@@H]1O metric_name=pIC50 readout_value=4.40

Please examine the following record next.
Query block: I'd like to know its pIC50. The molecule in question is `C[C@@H](OP(=O)(O)OP(=O)(O)OP(=O)(O)O)[C@H]1O[C@@H](n2ccc3c(N)ncnc32)[C@](C)(O)[C@@H]1O`
Result block: 4.19

----------
System: Huh 7 hepatoma cells containing the subgenomic HCV replicon
experimental-protocol: Cytotoxicity (MTS assay or GAPDH RNA readout)
Format: cell-based
Kindly state CC50 for each of the entries shown.

Record excerpt, results attached:
compound=C[C@H](O)[C@H]1O[C@@H](n2cc(F)c3c(N)ncnc32)[C@](C)(O)[C@@H]1O readout_value="> 100 µM"
compound=CC(C)(O)[C@H]1O[C@@H](n2ccc3c(N)ncnc32)[C@](C)(F)[C@@H]1O readout_value="> 100 µM"
compound="CC(O)[C@H]1O[C@@H](n2cc(I)c3c(N)ncnc32)[C@](C)(F)[C@@H]1O (stereo partly shown)" readout_value="30 µM"

# input for lookup
Query block: Which value of CC50 has been reported for C[C@H](O)C1O[C@@H](n2ccc3c(N)ncnc32)[C@](C)(O)[C@@H]1O (stereo partly shown) in the records?
Result block: > 100 µM

----------
Exercise: for every item that follows, state its recorded CC50.
System: Huh 7 hepatoma cells containing the subgenomic HCV replicon
experimental-protocol: Cytotoxicity (MTS assay or GAPDH RNA readout)
Format: cell-based

Worked cases, CC50 given:
molecule="C[C@@H](O)C1O[C@@H](n2cc(F)c3c(N)ncnc32)[C@](C)(F)[C@@H]1O (stereo partly shown)" readout_value="> 100 µM"
molecule=C[C@@H](O)[C@H]1O[C@@H](n2ccc3c(N)ncnc32)[C@](C)(O)[C@@H]1O readout_value="78 µM"
molecule="CCOC(=O)[C@H](C)NP(=O)(Oc1ccccc1)OC(C)[C@H]1O[C@@H](n2ccc3c(N)ncnc32)[C@](C)(F)[C@@H]1O (stereo partly shown)" readout_value="> 100 µM"

Query block: Tell me the measured CC50 of `CC(C)(O)[C@H]1O[C@@H](n2ccc3c(N)ncnc32)[C@](C)(O)[C@@H]1O` , please.
Result block: > 100 µM

----------
experimental-protocol: Cytotoxicity (MTS assay or GAPDH RNA readout)
Assay type: cell-based
test-settings: human, replicon-containing Huh 7 cells, 3-day incubation, MTS or GAPDH RNA readout; read-out: 1b CC50
metric-name: CC50 at 3 day

compound="CCCCOC(=O)[C@H](C)NP(=O)(Oc1cccc2ccccc12)O[C@H](CC)[C@H]1O[C@@H](n2ccc3c(N)ncnc32)[C@](C)(O)[C@@H]1O (stereo partly shown)" readout_value="30 µM"
compound=C[C@@H](O)[C@H]1O[C@@H](n2cc(F)c3c(N)ncnc32)[C@](C)(O)[C@@H]1O readout_value="> 100 µM"
compound="CCOC(=O)[C@H](C)NP(=O)(Oc1cccc2ccccc12)OC(C)[C@H]1O[C@@H](n2ccc3c(N)ncnc32)[C@](C)(F)[C@@H]1O (stereo partly shown)" readout_value="> 100 µM"

Below are some compounds; for each one, tell me its CC50 at 3 day.
1. COC(=O)[C@H](C)NP(=O)(Oc1ccccc1)O[C@@H](C)[C@H]1O[C@@H](n2cc(F)c3c(N)ncnc32)[C@](C)(O)[C@@H]1O (stereo partly shown)
2. CCCCOC(=O)[C@H](C)NP(=O)(Oc1cccc2ccccc12)O[C@H](CC)[C@H]1O[C@@H](n2cc(F)c3c(N)ncnc32)[C@](C)(O)[C@@H]1O (stereo partly shown)
3. CC(OP(=O)(N[C@@H](C)C(=O)OCC(C)(C)C)Oc1ccccc1)[C@H]1O[C@@H](n2ccc3c(N)ncnc32)[C@](C)(O)[C@@H]1O (stereo partly shown)
4. CCOC(=O)[C@H](C)NP(=O)(Oc1ccccc1)O[C@H](C)[C@H]1O[C@@H](n2ccc3c(N)ncnc32)[C@](C)(O)[C@@H]1O (stereo partly shown)
5. CC[C@@H](O)[C@H]1O[C@@H](n2cc(F)c3c(N)ncnc32)[C@](C)(O)[C@@H]1O
6. COC(=O)[C@H](C)NP(=O)(Oc1ccccc1)O[C@H](C)[C@H]1O[C@@H](n2ccc3c(N)ncnc32)[C@](C)(O)[C@@H]1O (stereo partly shown)
7. CCCCOC(=O)[C@H](C)NP(=O)(Oc1cccc2ccccc12)OC(C)[C@H]1O[C@@H](n2ccc3c(N)ncnc32)[C@](C)(O)[C@@H]1O (stereo partly shown)

Result block:
1: > 100 µM; 2: 5.7 µM; 3: > 100 µM; 4: > 100 µM; 5: 24 µM; 6: > 100 µM; 7: 51 µM

----------
Test system: HCV replicon (1b)
experimental-protocol: Cell-based HCV replicon assay
test-settings: Hepatitis C virus, 72 h; replicon cells, 3-day incubation, replicon RNA by real time PCR (Taqman); read-out: 1b EC50
metric-name: EC50

Examples with answers:
compound=CC[C@@H](O)[C@H]1O[C@@H](n2ccc3c(N)ncnc32)[C@](C)(O)[C@@H]1O assayed_system="HCV replicon (1b)" readout_value="> 100 µM"
compound=C[C@@H](O)[C@H]1O[C@@H](n2cc(F)c3c(N)ncnc32)[C@](C)(O)[C@@H]1O assayed_system="HCV replicon (1b)" readout_value="> 100 µM"

Below are some compounds; for each one, tell me its EC50.
1. CC[C@@H](O)[C@H]1O[C@@H](n2cc(F)c3c(N)ncnc32)[C@](C)(O)[C@@H]1O
2. CC(O)[C@H]1O[C@@H](n2ccc3c(N)ncnc32)[C@](C)(F)[C@@H]1O (some centres unmarked)
3. CC(O)[C@H]1O[C@@H](n2cc(-c3cc[nH]n3)c3c(N)ncnc32)[C@](C)(F)[C@@H]1O (some centres unmarked)

Result block:
1: 23 µM; 2: > 100 µM; 3: > 100 µM
